Target: 5 HT2C receptor (Homo sapiens, UniProt P28335)
Sequence (P28335 33-458): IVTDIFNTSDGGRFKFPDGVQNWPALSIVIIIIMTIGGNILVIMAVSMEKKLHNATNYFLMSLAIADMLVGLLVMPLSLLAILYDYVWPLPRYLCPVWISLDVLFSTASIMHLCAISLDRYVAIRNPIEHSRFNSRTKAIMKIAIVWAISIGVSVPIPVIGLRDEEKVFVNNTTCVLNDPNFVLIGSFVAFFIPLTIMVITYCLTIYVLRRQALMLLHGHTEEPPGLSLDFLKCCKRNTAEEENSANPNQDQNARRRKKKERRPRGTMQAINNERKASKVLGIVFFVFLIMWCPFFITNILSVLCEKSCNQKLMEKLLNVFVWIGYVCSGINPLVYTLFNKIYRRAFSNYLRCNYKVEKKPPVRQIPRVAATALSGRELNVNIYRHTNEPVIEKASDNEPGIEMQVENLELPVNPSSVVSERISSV
endpoint_label: IC50 (nM)
Write down the numeric answer in nM and omit the unit.

// query IC50 value for entry CC(C)(C)OC(=O)N1CCN(Cc2cnn(-c3ccc(-c4ccc5c(c4)OCO5)cc3)c2-c2ccco2)CC1
1000

// query IC50 value for entry CN1CCN(Cc2cnn(-c3ccc(-c4ccsc4)cc3)c2-c2ccccc2F)CC1
520

// query IC50 value for entry CC(C)N1CCN(Cc2cnn(-c3ccc(-c4ccc(F)cc4)cc3)c2-c2ccco2)CC1
370

// query IC50 value for entry COc1ccc(-c2ccc(-n3ncc(CN(C)C)c3-c3ccco3)cc2)cc1
290

// query IC50 value for entry CCN1CCN(Cc2cnn(-c3ccc(-c4cccc(F)c4)cc3)c2-c2ccco2)CC1
500

// query IC50 value for entry Fc1cccc(-c2ccc(-n3ncc(CN4CCN(C5CCCC5)CC4)c3-c3ccco3)cc2)c1
2940

// query IC50 value for entry CN(C)CCN(C)Cc1cnn(-c2ccc(-c3ccc(F)cc3)cc2)c1-c1cccc(Cl)c1
1000

// query IC50 value for entry CCN1CCN(Cc2cnn(-c3ccc(-c4ccc(F)cc4)cc3)c2-n2cccc2)CC1
1000

// query IC50 value for entry CN(C)Cc1cnn(-c2ccc(-c3ccc(F)cc3)cc2)c1-c1ccoc1
180

// query IC50 value for entry Fc1ccc(-c2ccc(-n3ncc(CN4CCC(COc5ccccn5)CC4)c3-c3ccco3)cc2)cc1
1000

// query IC50 value for entry Fc1ccc(-c2ccc(-n3ncc(CN4CCN(CCN5CCCC5)CC4)c3-c3ccco3)cc2)cc1
1000

// query IC50 value for entry COc1ccc(-c2ccc(-n3ncc(CN4CCN(C5CCCC5)CC4)c3-c3ccco3)cc2)cc1
2950

// query IC50 value for entry CN(C)C1CCN(Cc2cnn(-c3ccc(-c4ccc(F)cc4)cc3)c2-c2ccco2)C1 (stereo not drawn)
620

// query IC50 value for entry COc1ccccc1-c1c(CN2CCN(C)CC2)cnn1-c1ccc(-c2ccccc2F)cc1
840

// query IC50 value for entry CN1CCN(Cc2cnn(-c3ccc(-c4ccc(F)cc4)cc3)c2-c2ccsc2)CC1
630

// query IC50 value for entry CCN(CC)Cc1cnn(-c2ccc(-c3ccc4c(c3)OCCO4)cc2)c1-c1ccco1
900

// query IC50 value for entry CCN1CCN(Cc2cnn(-c3ccc(-c4ccc(OC)cc4)cc3)c2-c2ccco2)CC1
495

// query IC50 value for entry CN1CCN(Cc2cnn(-c3ccc(-c4ccc(F)cc4)cn3)c2-c2ccco2)CC1
1000

// query IC50 value for entry CCN1CCN(Cc2cnn(-c3ccc(-c4ccc5c(c4)OCO5)cc3)c2-c2ccco2)CC1
224

// query IC50 value for entry COc1ccccc1-c1c(CN2CCN(C)CC2)cnn1-c1ccc(-c2cc(F)ccc2F)cc1
630

// query IC50 value for entry CN1CCN(Cc2cnn(-c3ccc(-c4ccc(F)cc4)cc3)c2-c2ccco2)CC1
190

// query IC50 value for entry CN(C)Cc1cnn(-c2ccc(-c3ccc4c(c3)OCO4)cc2)c1-c1ccco1
74

// query IC50 value for entry CN(C)Cc1cnn(-c2ccc(-c3ccc4c(c3)OCCO4)cc2)c1-c1ccco1
180

// query IC50 value for entry CN1CCN(Cc2cnn(-c3ccc(-c4ccc(F)cc4)cc3)c2-c2ccoc2)CC1
1000

// query IC50 value for entry COc1ccc(-c2ccc(-n3ncc(CN4CCN(C)CC4)c3-c3ccco3)cc2)cc1
360

// query IC50 value for entry c1coc(-c2c(CN3CCN(C4CCCC4)CC3)cnn2-c2ccc(-c3ccc4c(c3)OCCO4)cc2)c1
1300

// query IC50 value for entry CN1CCN(Cc2cnn(-c3ccc(-c4cc(F)ccc4F)cc3)c2-c2ccco2)CC1
280

// query IC50 value for entry COc1ccc(-c2ccc(-n3ncc(CCN4CCC(O)C4)c3-c3ccco3)cc2)cc1 (stereo not drawn)
800

// query IC50 value for entry CN(C)Cc1cnn(-c2ccc(-c3cccc(F)c3)cc2)c1-c1ccco1
170

// query IC50 value for entry CN1CCN(Cc2cnn(-c3ccc(-c4ccc(Cl)s4)cc3)c2-c2ccccc2F)CC1
2800

// query IC50 value for entry Fc1ccc(-c2ccc(-n3ncc(CN4CCN(C5CCCC5)CC4)c3-c3ccco3)nc2)cc1
1000

// query IC50 value for entry CN1CCN(Cc2cnn(-c3ccc(-c4cccc(F)c4)cc3)c2-c2ccco2)CC1
250

// query IC50 value for entry CN1CCN(Cc2cnn(-c3ccc(-c4cccc(F)c4)cc3)c2-c2ccccc2F)CC1
460
